Target: GlcNAc(a1-6)Gal(b1-4)GlcNAc
Test: glycan array binding signal (z-score within array); higher = stronger binding
Settings: glycan notation: IUPAC condensed, linker removed
The sample as a whole holds a higher share of the strongest signals than the screen did.
Criterion: glycan array binding signal (z-score) meeting or surpassing 0.5. Met: yes (1). Not met: no (0).

SSR2 (Sclerotium rolfsii) (protein) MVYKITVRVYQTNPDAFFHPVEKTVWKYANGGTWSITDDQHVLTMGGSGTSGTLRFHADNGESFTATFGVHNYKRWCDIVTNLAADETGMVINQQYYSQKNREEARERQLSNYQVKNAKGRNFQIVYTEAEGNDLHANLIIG
yes (1)
F17fG (Escherichia coli), Q9RH91 (protein) MTNFYKVFLAVFILVCCNISHAAVSFIGSTENDVGPSQGSYSSTHAMDNLPFVYNTGHNIGYQNANVWRISGGFCVGLDGKVDLPVVGSLDGQSIYGLTEEVGLLIWMGDTNYSRGTAMSGNSWENVFSGWCVGNYVSTQGLSVHVRPVILKRNSSAQYSVQKTSIGSIRMRPYNGSSAGSVQTTVNFSLNPFTLNDTVTSCRLLTPSAVNVSLAAISAGQLPSSGDEVVAGTTSLKLQCDAGVTVWATLTDATTPSNRSDILTLTGASTATGVGLRIYKNTDSTPLKFGPDSPVKGNENQWQLSTGTETSPSVRLYVKYVNTGEGINPGTVNGISTFTFSYQ
no (0)
F17aG (Escherichia coli), Q99003 (protein) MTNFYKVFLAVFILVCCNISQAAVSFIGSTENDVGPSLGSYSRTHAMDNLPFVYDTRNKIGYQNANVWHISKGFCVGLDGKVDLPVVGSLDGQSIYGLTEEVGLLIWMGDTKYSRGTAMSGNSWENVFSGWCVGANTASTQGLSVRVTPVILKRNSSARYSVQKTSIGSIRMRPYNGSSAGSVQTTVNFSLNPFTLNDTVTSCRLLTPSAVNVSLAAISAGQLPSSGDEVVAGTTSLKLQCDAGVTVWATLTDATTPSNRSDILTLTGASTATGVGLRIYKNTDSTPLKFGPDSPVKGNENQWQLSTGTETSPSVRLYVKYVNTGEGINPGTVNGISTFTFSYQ
no (0)
Pbx1CASH domain (Cryptococcus neoformans) (protein) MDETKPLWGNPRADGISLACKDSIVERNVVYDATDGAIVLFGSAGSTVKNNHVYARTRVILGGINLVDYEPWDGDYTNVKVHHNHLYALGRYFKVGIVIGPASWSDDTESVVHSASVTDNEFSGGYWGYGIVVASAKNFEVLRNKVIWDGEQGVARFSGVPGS
no (0)
Loc1 (Escherichia coli) (protein) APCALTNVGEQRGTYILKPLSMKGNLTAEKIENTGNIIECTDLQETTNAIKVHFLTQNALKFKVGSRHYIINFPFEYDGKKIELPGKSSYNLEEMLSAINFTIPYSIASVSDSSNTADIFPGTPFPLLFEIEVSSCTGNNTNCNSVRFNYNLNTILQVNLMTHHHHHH
yes (1)

Is the recorded value of glycan array binding signal (z-score) equal to or greater than 0.5 for this binder? CV-2L (Chromobacterium violaceum), Q7NX84 (protein) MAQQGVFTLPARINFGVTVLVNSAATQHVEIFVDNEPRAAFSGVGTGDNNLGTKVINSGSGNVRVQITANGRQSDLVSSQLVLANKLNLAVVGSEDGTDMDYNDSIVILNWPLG no (0)

Is glycan array binding signal (z-score) for GST Gap3 (Streptococcus parasanguinis) (protein) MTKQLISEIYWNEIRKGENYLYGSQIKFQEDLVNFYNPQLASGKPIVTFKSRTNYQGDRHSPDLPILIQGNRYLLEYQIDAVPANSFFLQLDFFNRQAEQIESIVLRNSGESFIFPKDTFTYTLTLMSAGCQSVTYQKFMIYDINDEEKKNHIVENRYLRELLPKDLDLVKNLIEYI at or above 0.5? yes (1)

Reference source: the supplement of paper PMC8728848
